- Tested on: Pseudomonas aeruginosa
- test description: Antibacterial activity against VIM-1 producing Pseudomonas aeruginosa clone A1 isolate FG-17X-14 by Etest method
- Format: functional
Quick reference: MIC of the listed items.

mol smiles	property label	assay result
CC(C)(O/N=C(\C(=O)N[C@@H]1C(=O)N2C(C(=O)[O-])=C(C[n+]3ccccc3)CS[C@H]12)c1csc(N)n1)C(=O)O	MIC	> 128 µg/mL
C[C@H]1COc2c(N3CCN(C)CC3)c(F)cc3c(=O)c(C(=O)O)cn1c23.C[C@H]1COc2c(N3CCN(C)CC3)c(F)cc3c(=O)c(C(=O)O)cn1c23.O	MIC	> 32 µg/mL

**Query** Consider the compound shown here: "C[C@@H](O)[C@H]1C(=O)N2C(C(=O)O)=C(S[C@@H]3CN[C@H](C(=O)N(C)C)C3)[C@H](C)[C@H]12" What is its recorded MIC?
**Result** > 32 µg/mL
